Value source: the supplement of paper PMC12613149

assay: collision cross section (TIMS, N2 drift gas) of the primary ion; higher = larger gas-phase ion size; conditions: ionization mode: ESI+; ion species: [M+H]+
measured.attribute: collision cross section (Å²)
Numbers only here, please. The scale is Å².

Past entries and their recorded results:
Nc1ccc2nc3ccc(N)cc3nc2c1 [2,8-Diaminophenazine] :: 143.53
CCOc1nc2cccc(C(=O)O)c2n1Cc1ccc(-c2ccccc2-c2nnn[nH]2)cc1 [Candesartan] :: 196.78
CCCN(CC)CC1COC2(CCC(C(C)(C)C)CC2)O1 (stereo not given) [Spiroxamine] :: 177.53

Inquiry: Query (molecule): C[C@@H](O)CCCCn1c(=O)c2c(ncn2C)n(C)c1=O [Lisofylline] ; field requested: collision cross section
Reply text: 162.42

Inquiry: One more molecule: CCCCC(CC)COP(=O)(OCC(CC)CCCC)OCC(CC)CCCC (stereo not given) [Tris(2-ethylhexl)phosphate]
Reply text: 221.12

====

assay: collision cross section (TIMS, N2 drift gas) of the primary ion; higher = larger gas-phase ion size; settings: ionization mode: ESI-; ion species: [M-H]-
measured.attribute: collision cross section (Å²)
Numbers only here, please. The scale is Å².

CC(C)(c1ccc(O)c(-c2ccccc2)c1)c1ccc(O)c(-c2ccccc2)c1 :: 204.63

Inquiry: Query (compound): O=c1[nH]nc(C(F)(F)F)s1 ; field requested: collision cross section
Reply text: 115.69

Inquiry: One more compound: CCCCCCS(=O)(=O)O
Reply text: 137.49

Inquiry: One more compound: COc1nc(NC(=O)NS(=O)(=O)c2ccccc2C(F)(F)F)nc(C(F)(F)F)n1
Reply text: 184.96

Inquiry: One more compound: CCC(=O)OCC(=O)[C@@]1(OC(=O)CC)[C@@H](C)C[C@H]2[C@@H]3CCC4=CC(=O)C=C[C@]4(C)[C@@]3(Cl)[C@@H](O)C[C@@]21C [Beclometasone dipropionate]
Reply text: 223.83

Inquiry: One more compound: Nc1ccc(Oc2ccc(Cl)cc2Cl)cc1C(=O)O
Reply text: 169.52

Inquiry: One more compound: O=S(=O)(O)CCNC1CCCCC1
Reply text: 148.72

Inquiry: One more compound: COc1c(C)c2c(c(O)c1C/C=C(\C)CCC(=O)O)C(=O)OC2
Reply text: 175.76

====

assay: reversed-phase LC retention time (C18, 15 min MeOH gradient); higher = more hydrophobic / later elution; details: ionization mode: ESI+; ion species: [M+H]+
Note to self: values exactly at 10 min are T. So reversed-phase LC retention time at or above 10 min is T, below is F.

Some solved cases for reference:
O=C(O)CCCCCCCCCCC(=O)O :: T
C/N=C(/NCC1CCOC1)N[N+](=O)[O-] (stereo not given) :: F
CC1COc2c(N3CCN(C)CC3)c(F)cc3c(=O)c(C(=O)O)cn1c23 (stereo not given) :: F
CCc1cccc(C)c1N(C(=O)C(=O)O)C(C)COC (stereo not given) :: T

Okay, next one:
Inquiry: // inclusive: reversed-phase LC retention time at least 10 min? input: COc1nc(NC(=O)NS(=O)(=O)c2ccccc2C(F)(F)F)nc(C(F)(F)F)n1
Reply text: T

====

Form field: collision cross section (one value per entry).
assay: collision cross section (TIMS, N2 drift gas) of the primary ion; higher = larger gas-phase ion size; settings: ionization mode: ESI+; ion species: [M]+
Numbers only here, please. The scale is Å².

Past entries and their recorded results:
CC[n+]1ccn(C)c1 [1-Ethyl-3-methyl-imidazolium] :: 115.07
C[N+]1(C)CCCCC1 [Mepiquat] :: 118.75
CCCCCCCCCCCCCCCC[N+](C)(C)Cc1ccccc1 [Benzyldimethylhexadecylammonium] :: 213.31
CCCCCCCCCCCCCC[N+](C)(C)C [Tetradecyltrimethylammonium] :: 187.45
CCCCCCCCCC[N+](C)(C)CCCCCCCCCC [Didecyldimethylammonium] :: 211.39

Then this compound:
Inquiry: Query (compound): C[N+](C)(C)Cc1ccccc1 [Benzyltrimethylammonium] ; field requested: collision cross section
Reply text: 129.9

====

experiment: collision cross section (TIMS, N2 drift gas) of the primary ion; higher = larger gas-phase ion size; details: ionization mode: ESI+; ion species: [M+H]+
Form field: collision cross section (one value per entry).
Numbers only here, please. The scale is Å².

CN(C(=O)CO)c1c(I)c(C(=O)NCC(O)CO)c(I)c(C(=O)NCC(O)CO)c1I (configuration not stated) [Iomeprol] :: 216.41

Inquiry: Query (compound): CCc1cccc(C)c1N(C(=O)CS(=O)(=O)O)C(C)COC (configuration not stated) [Metolachlor ESA] ; field requested: collision cross section
Reply text: 170.74

Inquiry: One more compound: c1ccc2[nH]nnc2c1 [Benzotriazole]
Reply text: 119.49

Inquiry: One more compound: CCCSc1ccc2[nH]c(NC(=O)OC)nc2c1 [Albendazole]
Reply text: 165.21

Inquiry: One more compound: CCCC1CC(C(=O)NC(C(C)Cl)C2OC(SC)C(O)C(O)C2O)N(C)C1 (configuration not stated) [Clindamycin]
Reply text: 203.51

Inquiry: One more compound: CCC1OC(=O)C(C)C(OC2CC(C)(OC)C(O)C(C)O2)C(C)C(OC2OC(C)CC(N(C)C)C2O)C(C)(O)CC(C)CN(C)C(C)C(O)C1(C)O (configuration not stated) [Azithromycin]
Reply text: 264.86

Inquiry: One more compound: CCC1OC(=O)C(C)C(OC2CC(C)(OC)C(O)C(C)O2)C(C)C(OC2OC(C)CC(N(C)C)C2O)C(C)(OC)CC(C)C(=O)C(C)C(O)C1(C)O (configuration not stated) [Clarithromycin]
Reply text: 267.43

Inquiry: One more compound: CO/N=C(\C(=O)OC)c1ccccc1COc1ccccc1C [Kresoxim-methyl]
Reply text: 167.17

Inquiry: One more compound: CNCCC(Oc1cccc2ccccc12)c1cccs1 (configuration not stated) [Duloxetine]
Reply text: 171.35

Inquiry: One more compound: CCCCCCCCCCCOC(=O)c1ccccc1C(=O)OCCCCCCCCCCC [Diundecylphthalate]
Reply text: 241.8

Inquiry: One more compound: CC(CCOC(=O)c1ccccc1C(=O)OCCC(C)CC(C)(C)C)CC(C)(C)C (configuration not stated) [Di-isononyl phthalate]
Reply text: 224

Inquiry: One more compound: CCOC(=O)c1cn2nc(OP(=S)(OCC)OCC)cc2nc1C [Pyrazophos]
Reply text: 187.33

====

test: collision cross section (TIMS, N2 drift gas) of the primary ion; higher = larger gas-phase ion size; settings: ionization mode: ESI+; ion species: [M+H]+
measured.attribute: collision cross section (Å²)
Numbers only here, please. The scale is Å².

Past entries and their recorded results:
Oc1ccnc2ccccc12 [4-Hydroxyquinoline] :: 124.53
CC(COc1ccc(Oc2ccccc2)cc1)Oc1ccccn1 (stereo not drawn) [Pyriproxyfen] :: 184.89
CCC(C)(C)c1cc(-n2nc3ccccc3n2)c(O)c(C(C)(C)CC)c1 [UV-328] :: 196.56
O=C(/C=C/C=C/c1ccc2c(c1)OCO2)N1CCCCC1 [Piperine] :: 177.09
Cc1nc(N(C)C)nc(OC(=O)N(C)C)c1C [Pirimicarb] :: 156.34
CC(C)C(=O)OCC(C)(C)C(OC(=O)C(C)C)C(C)C (stereo not drawn) [2,2,4-Trimethyl-1,3-pentanediol diisobutyrate] :: 172.79
COCCN(C(=O)CS(=O)(=O)O)c1c(C)cccc1C [Dimethachlor ESA] :: 164.03
N#C/N=C1/SCCN1Cc1ccc(Cl)nc1 [Thiacloprid] :: 158.43
CC(C)(C#N)c1cc(Cn2cncn2)cc(C(C)(C)C#N)c1 [Anastrozole] :: 185.09
CN=C(NC#N)NCCSCc1nc[nH]c1C [Cimetidine] :: 158.06

Inquiry: Query (compound): O=c1[nH]sc2ccccc12 [1,2-Benzisothiazolinone] ; field requested: collision cross section
Reply text: 125.68

Inquiry: One more compound: CN1C(=O)C(O)N=C(c2ccccc2)c2cc(Cl)ccc21 (stereo not drawn) [Temazepam]
Reply text: 167.53

Inquiry: One more compound: CNC(=O)/C(=N/OC)c1ccccc1COc1cc(C)ccc1C [Dimoxystrobin]
Reply text: 178.04

Inquiry: One more compound: CC(=O)O[C@]1(C(C)=O)CC[C@H]2[C@@H]3C=C(C)C4=CC(=O)CC[C@]4(C)[C@H]3CC[C@@]21C [Megestrol-17-acetate]
Reply text: 198.3

Inquiry: One more compound: COC(=O)c1ccc(CNS(C)(=O)=O)cc1S(=O)(=O)NC(=O)Nc1nc(OC)cc(OC)n1 [Mesosulfuron-methyl]
Reply text: 201.99

Inquiry: One more compound: CC(C)(C)NC(=O)[C@H]1CC[C@H]2[C@@H]3CC[C@H]4NC(=O)C=C[C@]4(C)[C@H]3CC[C@]12C [Finasteride]
Reply text: 203.71

Inquiry: One more compound: COc1ccc(Cl)cc1C(=O)NCCc1ccc(S(=O)(=O)NC(=O)NC2CCCCC2)cc1 [Glibenclamide]
Reply text: 208.58

Inquiry: One more compound: CCCCCCCCCCCC[N+](C)(C)[O-] [N,N-Dimethyldodecylamine N-oxide]
Reply text: 175.77
